Sourced from patent EP4818168A1

Target: AURKA (Homo sapiens)
Construct: endogenous in cells; host or cells: Jurkat cells
Type: cell-based
Conditions: 1 µM compound, Jurkat cells, 24 h, Table 2
Source text: WB is a classical biochemical experimental method used to detect the abundance of a target protein in a sample of cells or biological tissue. It relies on specific antigen-antibody binding to detect protein signals from the sample processed by gel electrophoresis: the protein specifically binds to a primary antibody at an epitope; the primary antibody is then conjugated with a secondary antibody to amplify the signal cascade; the signal is read out by chemiluminescent or fluorescent detection. […]
endpoint.label: Percentage of AURKA Degradation Induced by 1 µM Compound in Jurkat Cells

In [3]: df
Out[3]:
                                smiles_data                   result
0  O=C1CCN(c2ccc(N3CCC4(CC3)CC(NC(=O)c3ccc(Nc5ncc6c(n5)-c5ccncc5C(c5ccccc5F)=NC6)cc3)C4)nc2)C(=O)N1  +++ (Degradation > 70%)
1  O=C1CCN(c2ccc(N3CCC4(CC3)CN(C3CN(c5ccc(Nc6ncc7c(n6)-c6ccc(Cl)cc6C(c6c(F)cccc6F)=NC7)cc5)C3)CCO4)nc2)C(=O)N1  +++ (Degradation > 70%)
2  O=C1CCN(c2ccc(N3CCN(CC4(O)CN(c5ccc(Nc6ncc7c(n6)-c6ccc(Cl)cc6C(c6c(F)cccc6F)=NC7)cc5)C4)CC3)nc2)C(=O)N1  +++ (Degradation > 70%)
3  Cn1c(CN2CCN(c3ccc(N4CCC(=O)NC4=O)cc3)CC2)cnc1-c1ccc(Nc2ncc3c(n2)-c2ccc(Cl)cc2C(c2c(F)cccc2F)=NC3)cc1  +++ (Degradation > 70%)
4  O=C1CCN(c2ccc(N3CCN(CCn4ccnc4-c4ccc(Nc5ncc6c(n5)-c5ccc(Cl)cc5C(c5c(F)cccc5F)=NC6)cc4)CC3)cc2)C(=O)N1    + (Degradation ≤ 30%)

May I ask what Percentage of AURKA Degradation Induced by 1 µM Compound in Jurkat Cells has been recorded for `CP(C)(=O)c1cc(N2CCN(C(=O)C3CCN(c4ccc(Nc5ncc6c(n5)-c5ccc(Cl)cc5C(c5c(F)cccc5F)=NC6)cc4)CC3)CC2)ccc1N1CCC(=O)NC1=O` ?
+ (Degradation ≤ 30%)

Also `O=C1CCN(c2ccc(N3CCN(CCCOc4cccc(Nc5ncc6c(n5)-c5ccc(Cl)cc5C(c5c(F)cccc5F)=NC6)c4)CC3)cc2)C(=O)N1` , if possible.
+ (Degradation ≤ 30%)

Also `CP(C)(=O)c1cc(N2CCC(=O)NC2=O)ccc1N1CCN(C(=O)C2CCN(c3ccc(Nc4ncc5c(n4)-c4ccc(Cl)cc4C(c4c(F)cccc4F)=NC5)cc3)CC2)CC1` , if possible.
+ (Degradation ≤ 30%)

Also `O=C1CCN(c2ccc(N3CCN(CCC#Cc4cccc(Nc5ncc6c(n5)-c5ccc(Cl)cc5C(c5c(F)cccc5F)=NC6)c4)CC3)cc2)C(=O)N1` , if possible.
+ (Degradation ≤ 30%)

====

Target: AURKA (Homo sapiens, UniProt O14965)
Construct: endogenous in cells; host or cells: Jurkat cells
Sequence (O14965 1-403): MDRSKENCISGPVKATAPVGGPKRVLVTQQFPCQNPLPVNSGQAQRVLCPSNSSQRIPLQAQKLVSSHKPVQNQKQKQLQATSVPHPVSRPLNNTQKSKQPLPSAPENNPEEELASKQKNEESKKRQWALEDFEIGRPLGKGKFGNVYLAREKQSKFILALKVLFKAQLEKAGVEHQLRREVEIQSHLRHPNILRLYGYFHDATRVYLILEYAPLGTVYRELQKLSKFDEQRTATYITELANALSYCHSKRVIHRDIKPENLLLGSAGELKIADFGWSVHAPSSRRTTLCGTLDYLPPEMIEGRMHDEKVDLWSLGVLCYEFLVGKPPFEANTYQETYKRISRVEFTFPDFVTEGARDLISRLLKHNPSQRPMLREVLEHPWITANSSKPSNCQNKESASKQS
Assay type: cell-based
Details: 1 µM compound, Jurkat cells, 24 h, Table 2
endpoint.label: Percentage of AURKA Degradation Induced by 1 µM Compound in Jurkat Cells

Please review the entries below; each comes with its answer.
compound	result
O=C1CCN(c2ccc(N3CCN(CC#Cc4ccc(Nc5ncc6c(n5)-c5ccc(Cl)cc5C(c5c(F)cccc5F)=NC6)cc4)CC3)cc2)C(=O)N1	+ (Degradation ≤ 30%)
O=C1CCN(c2ccc(N3CCC4(CC3)CC(N3CCN(c5ccc(Nc6ncc7c(n6)-c6ccc(Cl)cc6C(c6c(F)cccc6F)=NC7)cc5)C(=O)C3)CO4)nc2)C(=O)N1 (centres unmarked)	+++ (Degradation > 70%)
Cn1nc(N2CCC(=O)NC2=O)c2cc(F)c(N3CCN(C4CN(c5cccc(Nc6ncc7c(n6)-c6ccc(Cl)cc6C(c6c(F)cccc6F)=NC7)c5)C4)CC3)cc21	+++ (Degradation > 70%)
Cc1c(N2CCN(CCC#Cc3cccc(Nc4ncc5c(n4)-c4ccc(Cl)cc4C(c4c(F)cccc4F)=NC5)c3)CC2)cccc1N1CCC(=O)NC1=O	+++ (Degradation > 70%)

May I ask what Percentage of AURKA Degradation Induced by 1 µM Compound in Jurkat Cells has been recorded for `O=C1CCN(c2ccc(C3CN(C4CN(C(=O)c5ccc(Nc6ncc7c(n6)-c6ccc(Cl)cc6C(c6c(F)cccc6F)=NC7)cc5)C4)C3)nc2)C(=O)N1` ?
+ (Degradation ≤ 30%)
